Source: PubChem BioAssay (NCI)

# Test system: MDA-MB-231 breast
# Protocol Description: NCI-60 one-dose screen, 48 h (100 = growth as untreated, 0 = no growth, -100 = all killed)
# Condition Set: 10 µM
This is part of a sample that, as a whole, favours compounds with a hit. Of some 83,000 tested, about 20% had one in any assay.
Readout: growth (%)
Please state the figure in %; there is no need to write the unit.

{"Molecule": "O=C(/C=C/c1cc2ccccc2[nH]c1=O)c1ccc2c(c1)OCO2", "Reading Unit": "%", "Assay Value": 94}
{"Molecule": "O=C1NC(=O)c2ncccc21", "Reading Unit": "%", "Assay Value": 116}

Quick note, growth for `COc1ccc(-c2nc(-c3nc4cc(Cl)c(F)cc4[nH]3)c3ccccn23)cc1` landed at 57.5

Quick note, growth for `O=C(Nc1ccccc1)Nc1cccc(-n2cc(-c3ccncc3)c(-c3ccc(O)c(Cl)c3)n2)c1` landed at 15.6

---

# Tested on: SK-MEL-5 melanoma
# Protocol Description: NCI-60 one-dose screen, 48 h (100 = growth as untreated, 0 = no growth, -100 = all killed)
# Condition Set: 10 µM
Compounds without any hit were thinned out: in the full panel of roughly 83,000, 20% have a hit.
Classify by measured growth: 1 if it is equal to or exceeds 10%, 0 if it is smaller.

{"Compound": "Cc1cc(C)c(CCc2cc(C)c(C)cc2C)cc1C", "Test Target": "SK-MEL-5 melanoma", "Qualitative Label": 1}

Item `COc1cc(CNCCCCCCN2C(=O)c3cccc4cccc(c34)C2=O)ccc1O` with growth of 10% or above?
1

Item `c1ccc([I+]c2ccccc2)cc1` with growth of 10% or above?
1

Item COc1ccc(C2CC(c3ccc(N(C)C)cc3)=NN2c2ccc(S(N)(=O)=O)cc2)cc1 (configuration not stated) with growth of 10% or above?
1

Item `NC(=O)CC1(c2ccccc2)CCCCC1` with growth of 10% or above?
1

Item `Cc1cc(N(CCCNc2ccnc3cc(Cl)ccc23)Cc2ccc3c(c2)OCO3)nc(N2CCOCC2)n1` with growth of 10% or above?
0

Item `O=C(CSSCC(=O)c1ccc(Cl)cc1)c1ccc(Cl)cc1` with growth of 10% or above?
1

---

# Test system: NCI-H226 lung
# Protocol Description: NCI-60 one-dose screen, 48 h (100 = growth as untreated, 0 = no growth, -100 = all killed)
# Condition Set: 10 µM
Compounds without any hit were thinned out: in the full panel of roughly 83,000, 20% have a hit.
Readout: growth (%)
Please state the figure in %; there is no need to write the unit.

{"Mol": "COc1ccc2c(c1)-c1c(c3cc(OC)ccc3n(CCN(C)C)c1=O)C2=O", "growth (%)": 22}
{"Mol": "Cc1cccc(Cl)c1NC(=O)c1ccc2nc(NC(=O)NC3CCN(C)CC3)sc2c1", "growth (%)": 121}
{"Mol": "O=C(CCCCC(=O)Nc1ccc2c(c1)/C(=C/c1ccc[nH]1)C(=O)N2)NO", "growth (%)": 91.1}
{"Mol": "COc1cc(OC)cc(-c2cncn2-c2ccc(-c3nc4cc(OC)cc(OC)c4s3)cc2)c1", "growth (%)": 67.7}

Quick note, growth for `O=C(Nc1ccncc1)C(=O)c1cn(S(=O)(=O)c2cccc3ccccc23)c2ccccc12` landed at 76.8
